# System: SNB-19
# assay_comment: NCI tumour cell line growth inhibition, 48 h
The source made the active and inactive calls. No stated cut-off is given here; in the data, active = GI50 up to about 1.1 µM and inactive = higher.
Labels: YES (active), NO (inactive)

{"columns": ["molecule", "label_value"],
 "data": [
  ["CN(C)CCNC(=O)c1c2ccccc2cc2ccccc12", "NO"],
  ["Clc1nc2c(N3CCCC3)nc(N3CCNCC3)nc2[nH]1", "NO"],
  ["CCOP(=O)(OCC)c1cc(-c2ccccc2)ccc1N", "NO"],
  ["COc1c(C)c(C/C=C(\\C)CCCCO)c(OC)c2ccccc12", "NO"],
  ["Nc1ccc(C(=O)N/C(=C\\C=C\\c2ccco2)c2nc3c4c(ccc3[nH]2)C(=O)c2ccccc2C4=O)cc1", "NO"],
  ["NC(CCCCN/C=C1/N=C(c2ccccc2)OC1=O)C(=O)O (stereo not given)", "NO"],
  ["O=C1Nc2ccccc2/C1=N/Nc1ccc([N+](=O)[O-])cc1[N+](=O)[O-]", "NO"],
  ["COC(=O)c1c(O)ccc2c1c1c(n2CCc2ccccc2)C(=O)c2ccccc2C1=O", "NO"],
  ["COc1cc(C2c3cc4c(cc3[C@@H](Nc3ccc([N+](=O)[O-])cc3)C3COC(=O)[C@H]23)OCO4)cc(OC)c1O (stereo not given in full)", "YES"],
  ["O=C(Cc1ccccc1)NN1C(=O)/C(=C\\c2ccc([N+](=O)[O-])cc2)S/C1=N\\c1ccccc1", "NO"]
]}

====

# Test system: 786-0
# assay_comment: NCI tumour cell line growth inhibition, 48 h
Activity calls are given as the source filed them. Rule as the data show it: active = GI50 up to about 1.1 µM and inactive = higher.
Labels: active, inactive

{"columns": ["compound", "label_value"],
 "data": [
  ["CCc1nc(N)nc(N)c1-c1ccc(N2CCOCC2)c(N=[N+]=[N-])c1", "inactive"],
  ["CCOP(=O)(OCC)c1cc(-c2ccccc2)ccc1N", "inactive"],
  ["O=c1n(CCCN2CCOCC2)nc2n1-c1ccc3ccccc3c1SC2", "inactive"],
  ["O=C1CN2C(c3ccccc3)=NN(c3ccc([N+](=O)[O-])cc3)C2(c2ccccc2)c2cc(Cl)ccc2N1CC1CC1 (configuration not stated)", "inactive"],
  ["C=CCC(C(=O)O)c1ccccc1 (configuration not stated)", "inactive"],
  ["CC1(C)[N+]([O-])=[N+]([O-])C1(Br)c1ccccc1 (configuration not stated)", "inactive"],
  ["O=C(NC(Nc1ccc(F)c(Cl)c1)(C(F)(F)F)C(F)(F)F)OCc1ccccc1", "inactive"],
  ["O=c1oc2ccc([N+](=O)[O-])cc2c(Nc2ccc3c(c2)Sc2ccccc2O3)c1[N+](=O)[O-]", "inactive"],
  ["Cn1c2n/c(=N\\c3ccc(Cl)cc3)[n+]3ccc4ccccc4c3c-2c([O-])n1-c1ccccc1", "inactive"],
  ["O=C(Cn1c2ccc(Br)cc2c2nc3ccccc3nc21)NCc1ccccc1", "inactive"],
  ["O=C1C2=Cc3ccccc3CCN2c2ccccc21", "inactive"],
  ["O=C(N(C1=CCCC1)N(c1ccccc1)c1ccccc1)C(F)(F)F", "inactive"],
  ["O=c1c2ccccc2nc2[nH][nH]c(=S)n12", "inactive"],
  ["C/C(=N\\NC(=N)N)C(CN(CC(C)C)CC(C)C)C(=O)Nc1ccc(C)cc1C (configuration not stated)", "inactive"],
  ["CC1=C2C(=O)c3ccccc3C2=C(C)S(=O)(=O)O1", "inactive"],
  ["O=C1c2ccccc2C2=Nc3ccncc3CN12", "inactive"],
  ["Cc1nc2c(o1)C(=O)c1ccccc1/C2=N/c1ccccn1", "inactive"],
  ["O=C(O)c1cc(/C=C/c2cc(O)ccc2O)ccc1O", "inactive"],
  ["O=C(CC1(O)CCCCC1)OC1CCCC1", "inactive"],
  ["CCOC(=O)C1=c2[nH]c3cccc4cccc(c43)n2C(=O)CC1c1ccccc1 (configuration not stated)", "inactive"],
  ["COc1cc(C2c3cc4c(cc3OC(O)C2C)OCO4)cc(OC)c1OC (configuration not stated)", "active"],
  ["CN(C)C(=C1c2cc([N+](=O)[O-])ccc2-c2ccc([N+](=O)[O-])cc21)N(C)C", "inactive"]
]}

The reported measurements were obtained from ChEMBL document CHEMBL1201862.
